# Test system: behaviors of compound-treated mice
# Method: Neuropharmacological Assay (SmartCube)
# Type: in vivo
# Conditions: i.p. 15 min before behavioral test, most efficacious dose(s) of 3 doses
Counter-ions that a name gives are not always drawn.
Measurement Name: DP: anti-depressant (probability that activity matches class)

Molecule | System Tested | Experimental Result
NC[C@@H]1OCCc2c(-c3ccnnc3)cccc21 (single isomer, unassigned) [Compound 78, hydrochloride salt] | behaviors of compound-treated mice | + (LOQ ≤ + <5%)
CNC[C@@H]1OCCc2c(-c3ccon3)cccc21 (single isomer, unassigned) [Compound 90, hydrochloride salt] | behaviors of compound-treated mice | + (LOQ ≤ + <5%)

* * *

Assignment: determine reported minimal effective dose for the given compounds.
# Tested on: behaviors of compound-treated mice
# Method: Neuropharmacological Assay (SmartCube)
# Format: in vivo
# Conditions: Mus musculus, ip, 0.25 h, dose having 50% or more total activity in SmartCube, i.p., read-out: MED (minimal effective dose)
Where a name gives a salt, the structure may show the parent alone.

Lookup: Tell me reported minimal effective dose for NC[C@H]1OCCCc2c(-c3ccccn3)cccc21 [Compound 159, hydrochloride salt] , tested with behaviors of compound-treated mice.
Found: 10 to 30 mg/kg

Lookup: Item NC[C@@H]1OCCc2c(-c3ncc[nH]3)cccc21 (single isomer, unassigned) [Compound 108, hydrochloride salt] with behaviors of compound-treated mice - minimal effective dose?
Found: 10 to 30 mg/kg

Lookup: Any idea what minimal effective dose came out for CNC[C@@H]1OCCc2c(-c3cnco3)cccc21 (single isomer, unassigned) [Compound 96, hydrochloride salt] on behaviors of compound-treated mice?
Found: ≤ 3 mg/kg

Lookup: Item CCNCC1OCCc2c(-c3ccncc3)cccc21 (stereo not drawn) [Compound 51, hydrochloride salt] with behaviors of compound-treated mice - minimal effective dose?
Found: 3 to 10 mg/kg

Lookup: Provide value of minimal effective dose for this record tested with behaviors of compound-treated mice: CNC[C@H]1OCc2c(-c3ccncc3)cccc21 [Compound 40, hydrochloride salt]
Found: ≤ 3 mg/kg

Lookup: Under behaviors of compound-treated mice: minimal effective dose value of CNC[C@@H]1OCc2c(-c3ccncc3)cccc21 (single isomer, unassigned) [Compound 39, hydrochloride salt] ?
Found: ≤ 3 mg/kg

Lookup: Write down the reported minimal effective dose of NCC1OCCc2c(-c3cncs3)cccc21 (stereo not drawn) [Compound 59, hydrochloride salt] , test system: behaviors of compound-treated mice.
Found: ≤ 3 mg/kg

Lookup: Hi! What's the reported minimal effective dose for Cl.NC[C@@H]1OCCc2c(-c3ncco3)cccc21 [Compound 106] on behaviors of compound-treated mice?
Found: 10 to 30 mg/kg

Lookup: Reported minimal effective dose for behaviors of compound-treated mice, given CNC[C@@H]1OCc2c(-c3cccnc3)cccc21 [Compound 33, hydrochloride salt] ?
Found: 10 to 30 mg/kg

Lookup: // map NC[C@H]1OCCc2c(-c3ccncc3)cccc21 [Compound 20, hydrochloride salt] to recorded minimal effective dose (system: behaviors of compound-treated mice)
Found: ≤ 3 mg/kg

Lookup: Enter reported minimal effective dose observed with behaviors of compound-treated mice for CNC[C@@H]1OCCc2c(-c3ncccn3)cccc21 [Compound 24, hydrochloride]
Found: > 30 mg/kg

Lookup: Hello, I am looking for reported minimal effective dose with behaviors of compound-treated mice for NC[C@H]1OCc2c(-c3ccccn3)cccc21 (single isomer, unassigned) [Compound 42] . Could you help?
Found: 10 to 30 mg/kg

Lookup: # get_value(readout= minimal effective dose, system= behaviors of compound-treated mice) for CNC[C@@H]1OCCc2c(-c3ccncn3)cccc21 (single isomer, unassigned) [Compound 72, hydrochloride salt]
Found: > 30 mg/kg

Lookup: Entry CNC[C@H]1OCCc2c(-c3cnccn3)cccc21 (single isomer, unassigned) [Compound 81] , system behaviors of compound-treated mice: what minimal effective dose was measured?
Found: ≤ 3 mg/kg

Lookup: Please provide the recorded minimal effective dose for NC[C@H]1OCCc2c(-c3ncc[nH]3)cccc21 [Compound 109, hydrochloride salt] , tested on behaviors of compound-treated mice.
Found: > 30 mg/kg

* * *

Task for the reader: assign each of the following compounds its reported minimal effective dose.
# Test system: behaviors of compound-treated mice
# Method: Neuropharmacological Assay (SmartCube)
# Format: in vivo
# Conditions: Mus musculus, ip, 0.25 h, dose having 50% or more total activity in SmartCube, i.p., read-out: MED (minimal effective dose)
Counter-ions that a name gives are not always drawn.

Lookup: Param item = CNC[C@@H]1OCCc2c(-c3ccon3)cccc21 (single isomer, unassigned) [Compound 90, hydrochloride salt] ; retrieve measured minimal effective dose.
Found: 10 to 30 mg/kg

Lookup: Which minimal effective dose value belongs to CNC[C@@H]1OCCCc2c(-c3ccccn3)cccc21 (single isomer, unassigned) [Compound 156, hydrochloride salt] ?
Found: 10 to 30 mg/kg

Lookup: For the compound shown here, CNC[C@@H]1OCCc2ccc(-c3ccncc3)cc21 [Compound 49, hydrochloride] , give the reported minimal effective dose.
Found: ≤ 3 mg/kg

Lookup: Given CNC[C@@H]1OCCc2c(-c3c[nH]cn3)cccc21 (single isomer, unassigned) [Compound 114, hydrochloride salt] , state its recorded minimal effective dose.
Found: 10 to 30 mg/kg

Lookup: Name the reported minimal effective dose value associated with the compound CNC[C@@H]1OCCc2c(-c3cncnc3)cccc21 (single isomer, unassigned) [Compound 29, hydrochloride salt]
Found: > 30 mg/kg

Lookup: Look up minimal effective dose: NC[C@@H]1OCCc2c(-c3cnoc3)cccc21 (single isomer, unassigned) [Compound 86, hydrochloride salt]
Found: 3 to 10 mg/kg

Lookup: Please report the recorded minimal effective dose for NC[C@H]1OCCc2c(-c3cncnc3)cccc21 (single isomer, unassigned) [Compound 28, hydrochloride salt] .
Found: 3 to 10 mg/kg

Lookup: minimal effective dose for CNC[C@H]1OCCc2c(-c3ncc[nH]3)cccc21 [Compound 111, hydrochloride salt] ?
Found: 10 to 30 mg/kg

Lookup: For the compound CNCC1OCCc2c(-c3cncs3)cccc21 (stereo not shown) [Compound 52, hydrochloride] , what minimal effective dose is on record?
Found: 3 to 10 mg/kg

Lookup: Which minimal effective dose value is on record for CNC[C@H]1OCCc2c(-c3ccno3)cccc21 [Compound 95] ?
Found: ≤ 3 mg/kg

Lookup: Give the measured minimal effective dose of CNC[C@@H]1OCCCc2c(-c3cncs3)cccc21 (single isomer, unassigned) [Compound 168, hydrochloride salt] .
Found: ≤ 3 mg/kg

Lookup: Consider the compound CNC[C@H]1OCCc2c(-c3cn[nH]c3)cccc21 [Compound 119, hydrochloride salt] and give its measured minimal effective dose.
Found: ≤ 3 mg/kg

Lookup: Look up minimal effective dose: CNC[C@H]1OCCc2cc(-c3ncccn3)ccc21 [Compound 22, hydrochloride salt]
Found: 10 to 30 mg/kg

* * *

# Tested on: behaviors of compound-treated mice
# Method: Neuropharmacological Assay (SmartCube)
# Format: in vivo
# Conditions: Mus musculus, ip, 0.25 h, dose having 50% or more total activity in SmartCube, i.p., read-out: MED (minimal effective dose)
Structures can show the parent of a compound that is named as a salt.
Give minimal effective dose for every item shown.

Lookup: Return minimal effective dose measured with behaviors of compound-treated mice given this compound: NC[C@H]1OCCCc2c(-c3ccncc3)cccc21 (single isomer, unassigned)
Found: 3 to 10 mg/kg

Lookup: Please state recorded minimal effective dose (tested on behaviors of compound-treated mice) of NC[C@@H]1OCc2c(-c3ccccn3)cccc21 (single isomer, unassigned)
Found: 10 to 30 mg/kg

Lookup: Param readout = minimal effective dose; param system = behaviors of compound-treated mice; param query = NC[C@@H]1OCCc2c(-c3ccccc3)cccc21 (single isomer, unassigned) [Compound 130, hydrochloride salt] ; response: value
Found: 10 to 30 mg/kg

Lookup: Value wanted: minimal effective dose (behaviors of compound-treated mice) of entry NC[C@@H]1OCCc2c(-c3ccon3)cccc21 (single isomer, unassigned) [Compound 88, hydrochloride salt]
Found: 10 to 30 mg/kg

* * *

# System: behaviors of compound-treated mice
# Method: Neuropharmacological Assay (SmartCube)
# Type: in vivo
# Conditions: i.p. 15 min before behavioral test, most efficacious dose(s) of 3 doses
Counter-ions that a name gives are not always drawn.
Measurement Name: DP: anti-depressant (probability that activity matches class)

Consider the reported DP: anti-depressant (probability that activity matches class) for these compounds:
Compound | Experimental Result
CNC[C@H]1OCCc2c(-c3ncccn3)cccc21 [Compound 23, hydrochloride salt] | ++++ (50% ≤ ++++)
CNC[C@@H]1OCCc2c(-c3ccccn3)cccc21 (single isomer, unassigned) [Compound 43, hydrochloride salt] | ++ (5% ≤ ++ <25%)
NC[C@H]1OCCc2c(-c3cnccn3)cccc21 (single isomer, unassigned) [Compound 83, hydrochloride salt] | ++++ (50% ≤ ++++)
NC[C@@H]1OCCc2c(-c3cncnc3)cccc21 (single isomer, unassigned) [Compound 27, hydrochloride salt] | ++ (5% ≤ ++ <25%)
CNC[C@@H]1OCCc2c(-c3ncco3)cccc21 [Compound 104, hydrochloride salt] | ++ (5% ≤ ++ <25%)

Lookup: Which DP: anti-depressant (probability that activity matches class) value belongs to CNC[C@@H]1OCCc2cc(-c3cccnn3)ccc21 (single isomer, unassigned) [Compound 31, hydrochloride] ?
Found: ++ (5% ≤ ++ <25%)

Lookup: Need DP: anti-depressant (probability that activity matches class), item NC[C@H]1OCCc2c(-c3ccno3)cccc21 (single isomer, unassigned) [Compound 93, hydrochloride salt]
Found: + (LOQ ≤ + <5%)

Lookup: I'd like to know its DP: anti-depressant (probability that activity matches class). The compound in question is CNC[C@@H]1OCCc2c(-c3ccnnc3)cccc21 (single isomer, unassigned) [Compound 76, hydrochloride salt]
Found: + (LOQ ≤ + <5%)

Lookup: I'd like to know its DP: anti-depressant (probability that activity matches class). The compound in question is NC[C@H]1OCCc2c(-c3ncc[nH]3)cccc21 [Compound 109, hydrochloride salt]
Found: ++ (5% ≤ ++ <25%)

Lookup: Would you mind telling me what DP: anti-depressant (probability that activity matches class) value was observed for NC[C@@H]1OCc2c(-c3ccccn3)cccc21 (single isomer, unassigned) ?
Found: ++ (5% ≤ ++ <25%)

Lookup: Entry CNC[C@@H]1OCCc2c(-c3ccncn3)cccc21 (single isomer, unassigned) [Compound 72, hydrochloride salt] has what DP: anti-depressant (probability that activity matches class)?
Found: + (LOQ ≤ + <5%)

Lookup: Given CCNC[C@H]1OCCc2c(-c3ccncc3)cccc21 (single isomer, unassigned) [Compound 67, hydrochloride salt] , state its recorded DP: anti-depressant (probability that activity matches class).
Found: ++++ (50% ≤ ++++)

Lookup: Reported DP: anti-depressant (probability that activity matches class) for CNC[C@@H]1OCCc2c(-c3cncnc3)cccc21 (single isomer, unassigned) [Compound 29, hydrochloride salt] : what is it?
Found: + (LOQ ≤ + <5%)

Lookup: Which value of DP: anti-depressant (probability that activity matches class) has been reported for CNC[C@@H]1OCCc2c(-c3cocn3)cccc21 [Compound 102, HCl salt] in the records?
Found: + (LOQ ≤ + <5%)

Lookup: Recorded DP: anti-depressant (probability that activity matches class) for CNC[C@H]1OCCc2c(-c3cnccn3)cccc21 (single isomer, unassigned) , please?
Found: ++++ (50% ≤ ++++)

Lookup: DP: anti-depressant (probability that activity matches class) lookup needed for CNC[C@H]1OCCc2c(-c3ccccc3)cccc21 (single isomer, unassigned) [Compound 129, hydrochloride salt] , thanks.
Found: ++++ (50% ≤ ++++)

Lookup: Look up DP: anti-depressant (probability that activity matches class) for this compound: CNC[C@@H]1OCCc2c(-c3ncc[nH]3)cccc21 [Compound 110, hydrochloride salt]
Found: + (LOQ ≤ + <5%)

The reported measurements were obtained from patent US10780074B2.
